Data credit: patent US20250163167A1

Biological target: T1, human IL-10 receptor (hIL-10R alpha and beta chains) on HEK-Blue IL-10 reporter cells (human, UniProt Q13651 22-578; Q08334 20-325)
T1 sequence 1: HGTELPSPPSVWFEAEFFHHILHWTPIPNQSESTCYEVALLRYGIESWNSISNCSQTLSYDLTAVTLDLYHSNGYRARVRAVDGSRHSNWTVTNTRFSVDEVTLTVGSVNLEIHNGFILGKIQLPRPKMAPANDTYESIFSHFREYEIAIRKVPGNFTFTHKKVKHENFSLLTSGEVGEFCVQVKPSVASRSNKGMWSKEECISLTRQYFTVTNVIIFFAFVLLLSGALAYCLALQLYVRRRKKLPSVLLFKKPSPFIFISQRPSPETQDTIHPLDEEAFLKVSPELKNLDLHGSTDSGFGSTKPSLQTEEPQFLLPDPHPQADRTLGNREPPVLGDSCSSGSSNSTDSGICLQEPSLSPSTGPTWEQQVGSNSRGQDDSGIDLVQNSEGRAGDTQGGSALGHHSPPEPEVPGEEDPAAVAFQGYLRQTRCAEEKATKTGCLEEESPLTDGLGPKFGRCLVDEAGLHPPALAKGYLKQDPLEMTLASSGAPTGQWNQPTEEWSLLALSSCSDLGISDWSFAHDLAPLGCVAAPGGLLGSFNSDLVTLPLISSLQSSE
T1 sequence 2: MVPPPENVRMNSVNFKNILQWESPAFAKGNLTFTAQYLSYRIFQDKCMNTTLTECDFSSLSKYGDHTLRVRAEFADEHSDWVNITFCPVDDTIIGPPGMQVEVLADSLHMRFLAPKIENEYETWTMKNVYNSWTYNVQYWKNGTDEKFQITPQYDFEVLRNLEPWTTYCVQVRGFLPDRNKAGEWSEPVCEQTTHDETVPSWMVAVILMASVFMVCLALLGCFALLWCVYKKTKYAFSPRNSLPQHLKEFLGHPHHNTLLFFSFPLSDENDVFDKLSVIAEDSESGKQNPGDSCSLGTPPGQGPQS
Assay: cell-based or functional assay

[
  {
    "BINDER": "IL10R binding molecule of SEQ ID NO: 276 (bispecific antibody) QVQLQESGGGSVQAGGSLRLSCAASGYTYSMYCMGWFRQAPGKEREGVAQINSDGSTSYADSVKGRFTISKDNAKNTLYLQMNSLKPEDTAMYYCAADSRVYGGSWYERLCGPYTYEYNYWGQGTQVTVSSGGGSQVQLQESGGGSVQTGGSLRLSCAASGYTYLRGCMGWFRQAPGKEREGVAVMDVVGDRRSYIDSVKGRFTISRDNAANSVYLQMDNLKPEDTAMYYCTAGPNCVGWRSGLDYWGQGTQVTVSSASHHHHHH",
    "Abs 630 (25 nM), Abs 630": 0.46
  }
]
